# System: C57BL/6 mice
# experiment.summary: Depression model test of anti-blepharoptosis caused by reserpine (akinesia, blepharoptosis, shell temperature)
# Assay type: in vivo
# settings: Mus musculus, po, 1 h, Experiment 1; 10 mg/kg intragastric 7 days; reserpine 4 mg/kg i.p.; one hour after reserpine, 7.5 cm circle, 15-second observation; read-out: “out-of-circle” ratio
endpoint.name: responders at 10 mg/kg (%)
All answers are understood in %, so give the number only.

> print(dat)
                                   compound  value.unit  meas.value
1  CC(C)CNC(=O)/C=C/c1cc2c(c([N+](=O)[O-])c1)OCO2 [Compound I-2]           %          83
2  CC(C)CNC(=O)/C=C/c1cc2c(c(C(F)(F)F)c1)OCO2 [Compound I-5]           %          92

Okay, now this compound:
Recorded responders at 10 mg/kg for COc1cc(/C=C/C=C/C(=O)NCC(C)C)cc2c1OCO2 [Compound I-6] with C57BL/6 mice, please?
67
